- Test system: MALME-3M melanoma
- measurement description: NCI tumour cell line growth inhibition, 48 h
Items are presented alongside their recorded TGI.
value kind: TGI

INSERT INTO results (compound, result) VALUES
  ('COc1ccc2c(c1OC)C(=O)OC2C1c2c(c([N+](=O)[O-])c3c(c2OC)OCO3)CCN1C (stereo unspecified)', '> 100 µM'),
  ('CCC(c1c[nH]c2ccc(Br)cc12)c1c[nH]c2ccc(Br)cc12', '24.9 µM'),
  ('COC(=O)c1cnn2c1n[n+]([O-])c1ccccc12', '> 100 µM'),
  ('Nc1ccccc1SCc1csc(-c2ccc(Cl)cc2)n1', '47 µM'),
  ('COc1cc2c(cc1OC)C1(c3ccc(Cl)cc3)ON=C(c3ccccc3)N1CS2 (stereo unspecified)', '> 100 µM'),
  ('CC1(C)CCC[C@]2(C)[C@@H](C=O)C(C=O)=CC[C@@H]12', '32 µM'),
  ('CCN(c1cccc(NC(=S)Nc2ccccc2N(CC)c2cc(-c3ccccc3)no2)c1)c1cc(-c2ccccc2)no1', '> 100 µM'),
  ('CC(=O)c1c(C(F)(F)F)n([O-])c2ccc(C)cc2[n+]1=O', '15.6 µM'),
  ('Brc1ccc(-c2cn3ccncc3n2)cc1', '> 100 µM'),
  ('COc1cccc(NC(=O)C(C#N)=C(SC)SC)c1', '> 100 µM'),
  ('COc1nc(N)c(N=CC(OC(C)=O)C(OC(C)=O)C(COC(C)=O)OC(C)=O)c(=O)n1C (stereo unspecified)', '> 100 µM'),
  ('COc1cc2c(c(OC)c1OC)-c1ccc(SC)c(=O)cc1[C@@H](NC1OC(CO)C(O)C(O)C1O)CC2 (stereo partly specified)', '> 100 µM'),
  ('CCOC1=C2N=C(Cc3ccccc3F)N=C2C(=O)c2ccccc21', '> 100 µM'),
  ('C=CCOC(=O)C1C2OC3(C(C(=O)OC)=C2C(=O)OC)c2ccccc2CCC13 (stereo unspecified)', '> 10 µM'),
  ('Cc1ccc(/C(O)=C/C(=O)C(=O)NN=C(c2ccccc2)c2ccccc2)cc1', '> 100 µM'),
  ('Cc1ccc(NC(=O)c2ccccc2C(=O)O)cc1C', '> 100 µM'),
  ('N#Cc1ccc(N=Cc2c([O-])ccc3ccccc23)cc1.[C-]#[O+].[C-]#[O+].[Ir]', '15.1 µM'),
  ('CCOc1nc(N)nc(C)c1N=Nc1ccc(Cl)cc1', '> 100 µM'),
  ('CC(C)[C@@H]1ON1C(C)c1ccccc1 (stereo partly specified)', '> 100 µM'),
  ('Cc1cc(NCCCCCCCNc2cc(C)nc3cc([N+](=O)[O-])ccc23)c2ccc([N+](=O)[O-])cc2n1', '> 71.1 µM'),
  ('Brc1c(C#CCC2CCCCC2)ccc(C#CCC2CCCCC2)c1Br', '> 100 µM');

====

- System: NCI-H226 lung
- measurement description: NCI tumour cell line growth inhibition, 48 h
Items are presented alongside their recorded TGI.
value kind: TGI (µM)

INSERT INTO measurements (molecule, value_comparator, quantitative_readout) VALUES
  ('N#CN1CC[C@H](C(=O)Nc2ncc(-c3ccncc3)s2)C1', '=', 1.5),
  ('Cc1ccc(/C(O)=C/C(=O)C(=O)NN=C(c2ccccc2)c2ccccc2)cc1', '>', 100),
  ('COC(=O)C1=C(OC(=O)c2ccccc2)C(C(=O)OC)[C@]2(O)[C@@H](C(=O)OC)[C@H]1C[C@@H](c1ccccc1)[C@@H]2C(=O)OC (stereo not given in full)', '=', 19.2),
  ('CCOP(=O)(OCC)C(C)(CC)NC (stereo not given)', '>', 100),
  ('CC1CN1c1c(C(=O)/C=C/c2ccccc2)c(-c2ccccc2)nn(C)c1=O (stereo not given)', '=', 45.3);

====

Items are presented alongside their recorded TGI.
- System: NCI-H23 lung
- measurement description: NCI tumour cell line growth inhibition, 48 h
value kind: TGI

INSERT INTO measurements (molecule, result) VALUES
  ('CCCCCCCCCCCCCP(=O)(O)NCC(N)=O', '> 100 µM'),
  ('COc1cccc(N2C(=O)C3c4[nH]c5ccc(C)cc5c4C4CCC(C(C)(C)C)CC4C3C2=O)c1 (stereo not given)', '5.74 µM'),
  ('COc1ccc(C=O)c(NC(=O)C(C)C)c1', '> 100 µM'),
  ('CN(C)CC1CCCC1=O (stereo not given)', '11.7 µM'),
  ('CC1(C)C2CCC13CS(=O)(=O)N1O[C@]13C(=O)O2 (stereo not given in full)', '> 100 µM'),
  ('CCCc1ccc(NCc2cc(OC)c(OC)c(OC)c2)cc1', '69.2 µM'),
  ('CCN(c1cccc(NC(=S)Nc2ccccc2N(CC)c2cc(-c3ccccc3)no2)c1)c1cc(-c2ccccc2)no1', '> 100 µM'),
  ('CC(C)=CCC/C(C)=C/CC/C(C)=C/CC/C=C(\C)CC/C=C(\C)CCC(=O)Nc1ccn(C2OC(CO)C(O)C2(F)F)c(=O)n1 (stereo not given)', '12.4 µM'),
  ('c1ccc(P(=Nc2ccccc2N=P(c2ccccc2)(c2ccccc2)c2ccccc2)(c2ccccc2)c2ccccc2)cc1', '2.25 µM'),
  ('COc1cc(/C=C/[N+](=O)[O-])cc(Br)c1OC', '5.28 µM');

====

- Test system: BT-549 breast
- measurement description: NCI tumour cell line growth inhibition, 48 h
value kind: TGI

INSERT INTO measurements (compound, result) VALUES
  ('N#C/C(=C\c1c[nH]c2ccccc12)C(=O)c1ccc(O)c(O)c1', '65.1 µM'),
  ('CC1(O)OC(=O)C2=C1CCC1C2CCC2(C)C(O)CCC12 (stereo unspecified)', '> 100 µM'),
  ('COC(=O)c1nc(-c2ccccc2)oc1S(=O)(=O)n1nc(C)cc1N', '23.2 µM'),
  ('C#CCOCC12C=CC(O1)C1C(=O)OCC12 (stereo unspecified)', '> 100 µM'),
  ('OC1(c2ccccc2)CSC2=Nc3ccccc3C3CCN1N23 (stereo unspecified)', '57.4 µM'),
  ('CSCCC(NC(=O)Cc1ccc(C(=O)c2ccccc2)cc1)C(=O)O (stereo unspecified)', '> 100 µM');

====

- Tested on: OVCAR-5 ovarian
- measurement description: NCI tumour cell line growth inhibition, 48 h; in the data active means GI50 below about 0.43 µM; inactive means the rest
Outcome codes: active, inactive

INSERT INTO results (molecule, group_label) VALUES
  ('CCN(CCO)CC(C)Nc1ccc([N+](=O)[O-])c2sc3ccccc3c(=O)c12 (stereo not given)', 'inactive'),
  ('COC(=O)c1nc(-c2ccccc2)oc1S(=O)(=O)n1nc(C)cc1N', 'inactive'),
  ('COc1ccc(OC)c(C2SCC(=O)N2NC(=O)C(O)c2ccccc2)c1 (stereo not given)', 'inactive'),
  ('COc1ccc2c(c1)OC1=C(C(=O)OC1)C2c1cc(OC)c2c(c1)OCO2 (stereo not given)', 'active'),
  ('CC1=CC(=O)C(O)C2(C)C1CC(O)C13COC4(C)C(OC(=O)C41)C(O)C23 (stereo not given)', 'inactive'),
  ('Nc1ccc(-c2nc3ccccc3[nH]2)c2ccccc12', 'inactive'),
  ('CC(=O)c1c(C(F)(F)F)n([O-])c2ccc(C)cc2[n+]1=O', 'inactive'),
  ('C[CH2][Pb]([CH2]C)([CH2]C)[O]C(=O)c1ccc2ccccc2n1', 'inactive'),
  ('CC(C)=CCC/C(C)=C/CC/C(C)=C/CC/C=C(\C)CC/C=C(\C)CCC(=O)Nc1ccn(C2OC(CO)C(O)C2(F)F)c(=O)n1 (stereo not given)', 'inactive'),
  ('COc1ccc(C2[C@@H](Cl)C(=O)N2c2cc(OC)c(OC)c(OC)c2)cc1Cl (stereo not given in full)', 'active');

====

- Tested on: CAKI-1 renal
- measurement description: NCI tumour cell line growth inhibition, 48 h; in the data active = GI50 below about 0.43 µM; inactive = the rest
Outcome codes: active, inactive

INSERT INTO assay_data (compound, group_label) VALUES
  ('COc1ccc(C2[C@@H](Cl)C(=O)N2c2cc(OC)c(OC)c(OC)c2)cc1Cl (stereo partly drawn)', 'active'),
  ('C[CH2][Pb]([CH2]C)([CH2]C)[O]C(=O)c1ccc2ccccc2n1', 'inactive'),
  ('CC(C)(C)c1ccc(C(=O)Nc2sc3c(c2C(N)=O)CCC(=O)C3)cc1', 'active'),
  ('Cc1c(C2=C(c3cn(C)c4ccccc34)C(=O)NC2=O)c2ccccc2n1C', 'inactive'),
  ('COc1ccc(OC)c(C2SCC(=O)N2NC(=O)C(O)c2ccccc2)c1 (stereo not drawn)', 'inactive'),
  ('CCN(CCO)CC(C)Nc1ccc([N+](=O)[O-])c2sc3ccccc3c(=O)c12 (stereo not drawn)', 'active'),
  ('O=C(Oc1cccnc1)c1ccsc1Nc1ccnc(C(F)(F)F)c1', 'inactive'),
  ('COc1ccc(OC)c(Cn2cc3c(c2)-c2oncc2CC3)c1', 'inactive');
